Test system: COLO 205 colon
Experiment notes: NCI-60 one-dose screen, 48 h
Experimental setup: 10 µM
About 83,000 compounds went through this panel and 20% of them were active in at least one assay; those are over-represented in the sample as a whole. Calls of active or inactive are those of the source. Rule for the calls: active = growth percent below 10; inactive = the rest.
Your answer must be one of the following: label 1 = active, label 0 = inactive

Worked examples, 3 compounds total:
Compound	Group label
NC(=O)c1ccc(N=C(N)N=C(N)N)cc1	label 0
COC(=O)c1ccccc1Br	label 0
O=C1C=C(Nc2ccc([N+](=O)[O-])cc2)c2ccccc2C1=O	label 0

Exercise: # fetch the recorded call for Cc1cc2ccccc2c(O)c1C#N here
Key: label 0

Exercise: And for C[N+](C)(C)C(=O)c1ccccc1 ?
Key: label 0

Exercise: // repeat for N=c1c(C(=O)OCc2ccccc2)ncc(CCl)n1O and report
Key: label 0

Exercise: Next: O=S(=O)(Cc1ccccc1)c1ccccc1
Key: label 0

Exercise: Follow-up item: CCCC(C)OCC(=O)O (stereo unspecified)
Key: label 0

Exercise: Same for CCOc1ccc2[nH]c(=S)sc2c1
Key: label 0

Exercise: Repeat for the following compound: CCCC(=O)c1cc(C)ccc1OC
Key: label 0

Exercise: And CCCCC(O)c1ccccc1 (stereo unspecified) ?
Key: label 0

Exercise: Try this compound next: O=C(/C=C/C(=O)c1ccccc1)c1ccccc1
Key: label 0

Exercise: What would you report for CC1=CC(C)(C)NC(=S)N1c1ccc(S(=O)(=O)O)c2cccc(S(=O)(=O)O)c12 ?
Key: label 0

Exercise: Quick one: CC(C)C1CCCCC1O (stereo unspecified)
Key: label 0

Exercise: How about CCN1C(=O)/C(=C/C=C/N(C)c2ccccc2)SC1=S ?
Key: label 0

Exercise: Entry CCOC(=O)C/C(C)=N\O please
Key: label 0

Exercise: Now consider NCC(=O)CCC(=O)O .
Key: label 0

Exercise: How about CCCCC1(CC)COC(CCC)OC1 (stereo unspecified) ?
Key: label 0

Exercise: Likewise for O=C(O)CCCC(=O)O ?
Key: label 0

Exercise: Can you handle CCCCC/C=N/Nc1nc(C)cc(=O)[nH]1 next?
Key: label 0

Exercise: Now try CC1CCC2C(C)(C)C3CC12CC1OC13C (stereo unspecified) .
Key: label 0

Exercise: Try COc1cc(/C=N\Nc2ccccc2)ccc1OC(=O)c1ccccc1 next.
Key: label 0

Exercise: Subsequent entry: COc1cc2cc(c1Cl)N(C)C(=O)C[C@H](OC(=O)[C@H](C)N(C)C(C)=O)[C@]1(C)O[C@H]1[C@H](C)[C@@H]1C[C@@](O)(NC(=O)O1)[C@H](OC)C=C/C=C(\C)C2
Key: label 1

Exercise: Same question, COC(=O)Nc1nc2ccc(C(=O)c3ccc(F)cc3)cc2[nH]1 this time
Key: label 1

Exercise: // query: O=[N+]([O-])c1ccc(/C=C/C=C/c2ccccc2)c(Cl)c1
Key: label 0

Exercise: Entry COC(=O)c1ccccc1N(C)C please
Key: label 0
